experiment: in vitro; conditions: human, MT4 cells
Description: Selectivity index, ratio of CC50 for cytotoxicity against human MT4 cells to EC50 for antiviral activity against NNRTI-resistant HIV-1 harboring K103N mutant infected in human MT4 cells
readout.name: selectivity ratio
One number for each entry.

{"columns": ["compound", "selectivity ratio"],
 "data": [
  ["Cc1cc(C#N)cc(C)c1Oc1nc(Nc2ccc(C#N)cc2)nc2c1CN(Cc1ccc(C(N)=O)cc1)CC2", 12900]
]}

Now look at this entry.
Task: Using the record for `COc1ccc(C(=O)N2CCc3nc(Nc4ccc(C#N)cc4)nc(Oc4c(C)cc(C#N)cc4C)c3C2)cc1` , report its selectivity ratio.
Result: 3390

---

experiment: Metabolic stability in human liver microsomes assessed as intrinsic clearance incubated for 60 mins in the presence of NADPH by LC-MS/MS analysis; details: microsomes
readout.name: microsomal CLint at 1 h (µL/min/mg)
One number for each entry, in µL/min/mg.

Task: Requested read-out: microsomal CLint at 1 h. Entry: Cc1cc(/C=C/C#N)cc(C)c1Nc1ccnc(Nc2ccc(C#N)cc2)n1 [RILPIVIRINE]
Result: 108

---

Provide the reported half-life of each item.
assay: Metabolic stability in human plasma assessed as half-life incubated for 120 mins by LC-MS/MS analysis; format: ADME, cell-free

Below are worked cases with known answers.
{"columns": ["molecule", "readout.name", "observed.measurement"],
 "data": [
  ["Cc1cc(C#N)cc(C)c1Oc1nc(Nc2ccc(C#N)cc2)nc(N)c1Br", "half-life", "> 4.82 h"],
  ["CC(C)[N+](C)(CCOC(=O)C1c2ccccc2Oc2ccccc21)C(C)C.[Br-] [PROPANTHELINE BROMIDE]", "half-life", "0.167 h"]
]}

Could you now look at the following molecule, please?
Task: For the molecule shown here, `CCC(=O)N1CCc2nc(Nc3ccc(C#N)cc3)nc(Oc3c(C)cc(C#N)cc3C)c2C1` , give the reported half-life.
Result: > 4.82 h

---

biological target: UniProt Q72547
// classify: if (IC50 < 200 nM) Condition met else Condition not met

{"columns": ["compound", "label.value"],
 "data": [
  ["CCC(=O)N1CCc2nc(Nc3ccc(C#N)cc3)nc(Oc3c(C)cc(C#N)cc3C)c2C1", "Condition met"],
  ["Cc1cc(C#N)cc(C)c1Oc1nc(Nc2ccc(C#N)cc2)nc2c1CNCC2", "Condition met"],
  ["COc1cccc(C(=O)N2CCc3nc(Nc4ccc(C#N)cc4)nc(Oc4c(C)cc(C#N)cc4C)c3C2)c1", "Condition met"],
  ["Cc1cc(C#N)cc(C)c1Oc1nc(Nc2ccc(C#N)cc2)nc2c1CN(C(=O)c1ccc(C#N)cc1)CC2", "Condition met"],
  ["Cc1cc(C#N)cc(C)c1Oc1nc(Nc2ccc(C#N)cc2)nc2c1CN(C(=O)c1cccc(C(F)(F)F)c1)CC2", "Condition not met"]
]}

Task: Below 200 nM on IC50? Entry `Cc1cc(C#N)cc(C)c1Oc1nc(Nc2ccc(C#N)cc2)nc2c1CN(Cc1ccc(S(N)(=O)=O)cc1)CC2`
Result: Condition met

Task: What would you report for `Cc1cc(C#N)cc(C)c1Oc1nc(Nc2ccc(C#N)cc2)nc2c1CN(Cc1ccc(S(C)(=O)=O)cc1)CC2` ?
Result: Condition not met

Task: Also check `Cc1cc(C#N)cc(C)c1Oc1nc(Nc2ccc(C#N)cc2)nc2c1CN(C(=O)c1ccc(C(F)(F)F)cc1)CC2`
Result: Condition not met
